Source of measurements: patent US12297194B2

Molecular target: Ba/F3 EGFR L858R/C797S mutants (Homo sapiens, UniProt P00533, C797S/L858R, cells depend on it)
Sequence (P00533 whole entry C797S/L858R): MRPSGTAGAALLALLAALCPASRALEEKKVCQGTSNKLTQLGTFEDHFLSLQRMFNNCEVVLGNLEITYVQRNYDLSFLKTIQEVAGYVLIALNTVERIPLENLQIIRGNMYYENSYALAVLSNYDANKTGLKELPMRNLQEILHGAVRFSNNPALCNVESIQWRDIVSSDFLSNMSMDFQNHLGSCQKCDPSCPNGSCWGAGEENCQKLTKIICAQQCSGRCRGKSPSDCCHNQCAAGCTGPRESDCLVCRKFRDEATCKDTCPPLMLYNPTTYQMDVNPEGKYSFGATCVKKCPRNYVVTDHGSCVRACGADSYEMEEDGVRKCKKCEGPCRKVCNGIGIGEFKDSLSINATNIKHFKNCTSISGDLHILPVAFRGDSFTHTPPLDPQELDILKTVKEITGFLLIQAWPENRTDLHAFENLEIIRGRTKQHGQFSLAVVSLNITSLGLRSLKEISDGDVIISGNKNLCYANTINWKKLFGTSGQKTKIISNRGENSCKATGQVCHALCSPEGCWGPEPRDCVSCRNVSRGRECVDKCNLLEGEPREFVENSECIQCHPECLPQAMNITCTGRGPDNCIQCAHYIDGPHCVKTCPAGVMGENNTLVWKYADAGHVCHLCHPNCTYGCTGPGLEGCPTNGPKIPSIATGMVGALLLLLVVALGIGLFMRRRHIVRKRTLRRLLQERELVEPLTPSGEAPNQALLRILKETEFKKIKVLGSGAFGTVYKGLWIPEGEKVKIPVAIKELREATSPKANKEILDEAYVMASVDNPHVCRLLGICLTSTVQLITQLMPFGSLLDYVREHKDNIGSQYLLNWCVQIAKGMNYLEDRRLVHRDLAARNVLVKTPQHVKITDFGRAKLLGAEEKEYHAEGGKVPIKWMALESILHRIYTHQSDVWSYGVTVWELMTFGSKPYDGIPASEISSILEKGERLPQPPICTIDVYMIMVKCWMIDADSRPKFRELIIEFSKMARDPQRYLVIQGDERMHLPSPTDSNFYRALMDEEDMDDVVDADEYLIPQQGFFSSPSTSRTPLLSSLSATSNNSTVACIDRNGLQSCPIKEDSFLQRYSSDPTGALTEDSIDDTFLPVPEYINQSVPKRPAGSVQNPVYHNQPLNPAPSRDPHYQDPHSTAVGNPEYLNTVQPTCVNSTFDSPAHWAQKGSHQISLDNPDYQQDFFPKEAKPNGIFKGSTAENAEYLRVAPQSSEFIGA
Assay: CellTiter-Glo cell viability, Ba/F3 EGFR L858R/C797S cells
Type: cell-based, murine
Details: 72 hours, read-out: Ba/F3 EGFR mutant cell (IC50, nM) L/C
Procedure: In order to evaluate an inhibitory ability on wild-type Ba/F3 EGFR and Ba/F3 EGFR mutations in Ba/F3 cell lines by the compounds of Formula 1, the experiment was carried out as described below. The measurement of activities on Ba/F3 cells harboring wild-type EGFR and EGFR mutants by the compounds of the present invention were determined utilizing the CELLTITER-GLO™ system from Promega, as follows. […]
Metric Name: GI50 (nM)
Number in nM, nothing else.

Solved cases below.
[[record]]
smiles_notation = "COc1cc(N2CCC(N3CCOCC3)CC2)c(C)cc1Nc1ncc(Br)c(Nc2ccc3nccnc3c2NS(C)(=O)=O)n1"
value = 114

[[record]]
smiles_notation = "CCc1cc(Nc2ncc(F)c(Nc3ccc4nccnc4c3NS(C)(=O)=O)n2)c(OC)cc1N1CCC(N2CCN(C)CC2)CC1"
value = 106

[[record]]
smiles_notation = "CCCc1cc(Nc2ncc(Br)c(Nc3ccc4nccnc4c3NS(C)(=O)=O)n2)c(OC)cc1N1CCC(N(C)C)CC1"
value = 114


Would you kindly look at the next entry?
# GI50 (molecule: CCc1cc(Nc2ncc(Cl)c(Nc3ccc(OC)cc3NS(C)(=O)=O)n2)c(OC)cc1N1CCC(N2CCOCC2)CC1 ) is 22
